Test: CHEX/H2O partition coefficient (log D) predicted with the QM-parameterized force field model (ARROW FF)
Reported log D Arrow MD Error values follow for various compounds
Give the value as a plain number.

A selection of reference data follows.
{"COMPOUND": "CCCOC(C)=O [PropylAcetate]", "ASSAY_READOUT": "log D Arrow MD Error", "RECORDED_NUMBER": 0.65}
{"COMPOUND": "CCC", "ASSAY_READOUT": "log D Arrow MD Error", "RECORDED_NUMBER": 0.31}

Next compound, please.
**Q:** Name the reported log D Arrow MD Error value associated with the compound `CCCC(C)=O`
**A:** 0.22
